The following binders are shown together with reported pKd values.
- TARGET_OR_SYSTEM: T1, c-erbB-2 ECD with a Ser-Gly-His6 C-terminal fusion (UniProt P04626 23-652)
- T1 construct: extracellular domain; Expressed from CHO cells, IMAC purified; coupled to a CM5 chip, coated on plates, or biotinylated with NHS-LC-biotin; also called c-erbB-2 extracellular domain; biotinylated c-erbB-2 ECD
- METHOD_DESCRIPTION: SPR BIAcore
Keep in mind that pKd stands for -log10 of concentration in molar terms.

Below are worked cases with known answers.
INSERT INTO results (binder, val) VALUES
  ('C6-B47D6 (scFv, Combined B47 and D6 mutations on C6ML3-9) scFv: QVQLLQSGAELKKPGESLKISCKGSGYSFTSYWIAWVRQMPGKGLEYMGLIYPGDSDTKYSPSFQGQVTISVDKSVSTAYLQWSSLKPSDSAVYFCARHDVGYCTDRSCAKWPEWMYPWGQGTLVTVSSGGGGSGGGGSGGGGSQSVLTQPPSVSAAPGQKVTISCSGSSSNIGNNYVSWYQQLPGTAPKLLIYGHTNRPAGVPDRFSGSKSGTSASLAISGFRSEDEADYYCASWDYTLSGWVFGGGTKLTVLG', 10.29),
  ('C6-9L1 (scFv, C6L1 with the VL CDR3 of C6ML3-9) scFv: QVQLLQSGAELKKPGESLKISCKGSGYSFTSYWIAWVRQMPGKGLEYMGLIYPGDSDTKYSPSFQGQVTISVDKSVSTAYLQWSSLKPSDSAVYFCARHDVGYCSSSNCAKWPEYFQHWGQGTLVTVSSGGGGSGGGGSGGGGSQSVLTQPPSVSGAPGQWVTISCSGSSSNIGNNYVSWYQQLPGTAPKLLIYDNNKRPSGVPDRFSGSQSGTSASLAISGLRSEDEADYYCASWDYTLSGWVFGGGTKLTVLG', 9.48);

Moving on to another binder below.
Report pKd for C6-12L1 (scFv, C6L1 with the VL CDR3 of C6ML3-12) scFv: QVQLLQSGAELKKPGESLKISCKGSGYSFTSYWIAWVRQMPGKGLEYMGLIYPGDSDTKYSPSFQGQVTISVDKSVSTAYLQWSSLKPSDSAVYFCARHDVGYCSSSNCAKWPEYFQHWGQGTLVTVSSGGGGSGGGGSGGGGSQSVLTQPPSVSGAPGQWVTISCSGSSSNIGNNYVSWYQQLPGTAPKLLIYDNNKRPSGVPDRFSGSQSGTSASLAISGLRSEDEADYYCAAWDYSRSGWVFGGGTKLTVLG please. 9.72

Origin of values: patent US6512097
